Entry source: patent US20260158009A1

Biological target: hRIPK1 (aa 1-375) fusion protein (Homo sapiens, UniProt Q13546)
Construct: hRIPK1 (aa 1-375) fusion protein
Sequence (Q13546 1-375): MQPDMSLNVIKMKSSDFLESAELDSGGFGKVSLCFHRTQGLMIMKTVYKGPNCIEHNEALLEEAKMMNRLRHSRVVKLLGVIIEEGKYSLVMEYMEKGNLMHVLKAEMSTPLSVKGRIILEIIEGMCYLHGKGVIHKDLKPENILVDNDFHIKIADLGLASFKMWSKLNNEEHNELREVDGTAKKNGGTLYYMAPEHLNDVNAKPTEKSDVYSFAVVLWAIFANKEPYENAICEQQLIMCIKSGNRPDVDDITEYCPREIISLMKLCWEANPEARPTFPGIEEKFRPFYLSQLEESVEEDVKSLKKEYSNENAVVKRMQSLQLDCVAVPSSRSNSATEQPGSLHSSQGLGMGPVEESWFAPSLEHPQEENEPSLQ
Assay: ADP-Glo kinase assay: catalytic activity of RIPK1 (autophosphorylation, conversion of ATP to ADP)
pIC50: −log10 of the molar value.
measured_attribute: pIC50

N#Cc1cc(F)cc([C@@H]2CCON2C(=O)[C@H]2CC[C@H](Cn3cnc4c(F)cc(C#N)cc43)CC2)c1 [compound 36]; 7.64
O=C([C@H]1C[C@H](Cn2cnc3cc(F)ccc32)C1)N1OCC[C@H]1c1cc(F)cc(F)c1 [compound 115]; 7.51
Cc1cc(C)n(-c2cc(C[C@H]3CC[C@H](C(=O)N4OCC[C@H]4c4cc(F)cc(F)c4)CC3)ncn2)n1 [compound 125]; 8.05
N#Cc1cc(F)cc([C@@H]2CCON2C(=O)[C@H]2CC[C@H](Cn3ccc4ncc(C#N)cc43)CC2)c1 [compound 2]; 7.48
Cc1ncc(F)cc1C[C@H]1CC[C@H](C(=O)N2OCC[C@H]2c2cncc(F)c2)CC1 [compound 178]; 7.42
N#Cc1cc(F)cc([C@@H]2CCON2C(=O)[C@H]2CC[C@H](Cn3cc4cc(C#N)ccc4n3)CC2)c1 [compound 59]; 7.52
Cc1ccc([C@@H]2CCON2C(=O)[C@H]2CC[C@H](Cn3ncc4cc(C#N)c(F)cc43)CC2)cn1 [compound 298]; 7.70

----------
Molecular target: hRIPK1 (aa 1-375) fusion protein (Homo sapiens, UniProt Q13546)
Construct: hRIPK1 (aa 1-375) fusion protein
Assay: ADP-Glo kinase assay: catalytic activity of RIPK1 (autophosphorylation, conversion of ATP to ADP)
measured_attribute: log10 IC50 (log10 of the value in nM)

N#Cc1cc(F)cc([C@@H]2CCON2C(=O)[C@H]2CC[C@H](Cc3cc(F)cc(CO)c3)CC2)c1 [Compound 256]; 1.18
Cc1ncc(F)cc1C[C@H]1CC[C@H](C(=O)N2OCC[C@H]2c2cc(F)cc(C#N)c2)CC1 [compound 181]; 1.41
O=C([C@H]1CC[C@H](Cc2ccc(CO)c(F)c2)CC1)N1OCC[C@H]1c1cc(F)cc(F)c1 [compound 265]; 0.90
Cc1cc(C[C@H]2CC[C@H](C(=O)N3OCC[C@H]3c3cc(F)cc(F)c3)CC2)ncn1 [compound 313]; 1.62
Cc1ncc(C#N)cc1C[C@H]1CC[C@H](C(=O)N2OCC[C@H]2c2cc(F)cc(F)c2)CC1 [compound 278]; 1.20
Cc1cncc([C@@H]2CCON2C(=O)[C@H]2CC[C@H](Cc3cc(C)c4ncnn4c3)CC2)c1 [compound 334]; 1.30
N#Cc1cnc2cnn(C[C@H]3CC[C@H](C(=O)N4OCC[C@H]4c4cnccn4)CC3)c2c1 [compound 137]; 1.48
Cc1ccc([C@@H]2CCON2C(=O)[C@H]2CC[C@H](Cc3ccc4nnc(C)n4c3C)CC2)cn1 [compound 376]; 1.88
Cn1cc(C[C@H]2CC[C@H](C(=O)N3OCC[C@H]3c3cc(F)cc(C#N)c3)CC2)nn1 [Compound 258]; 1.85
Cc1cn2cc(C[C@H]3CC[C@H](C(=O)N4OCC[C@H]4c4cc(F)cc(F)c4)CC3)cc(F)c2n1 [compound 281]; 1.28
NC(=O)c1ccc2cnn(C[C@H]3CC[C@H](C(=O)N4OCC[C@H]4c4cnccn4)CC3)c2c1 [Compound 229]; 1.40
Cc1nc2c(C)cc(C[C@H]3CC[C@@](C)(C(=O)N4OCC[C@H]4c4cnc(C)c(F)c4)CC3)cn2n1 [compound 402]; 3.30
N#Cc1cc(F)cc([C@@H]2CCON2C(=O)[C@H]2CC[C@H](Cn3ccc4cc(F)c(C#N)cc43)CC2)c1 [compound 22]; 1.30
N#Cc1cc(F)cc([C@@H]2CCON2C(=O)[C@H]2CC[C@H](Cn3ncc4ccc(C#N)cc43)CC2)c1 [compound 28]; 1.28
N#Cc1cc(C[C@H]2CC[C@H](C(=O)N3OCC[C@H]3c3cnccn3)CC2)ccc1F [compound 243]; 1.11
Cc1nn(C[C@H]2CC[C@H](C(=O)N3OCC[C@H]3c3cc(F)cc(F)c3)CC2)c2ccccc12 [compound 60]; 1.15
NC(=O)c1ccc2c(cnn2C[C@H]2CC[C@H](C(=O)N3OCC[C@H]3c3cc(F)cc(F)c3)CC2)c1 [compound 73]; 1.38
Cc1ncc([C@@H]2CCON2C(=O)[C@H]2CC[C@H](Cc3cc(F)c4ncnn4c3)CC2)cc1F [compound 392]; 1.51
O=C([C@H]1CC[C@H](Cc2cncnc2)CC1)N1OCC[C@H]1c1cnccn1 [compound 248]; 1.86
Cc1nccn1-c1cc(F)cc(C[C@H]2CC[C@H](C(=O)N3OCC[C@H]3c3ccc(F)cc3)CC2)c1 [compound 207]; 1.36
N#Cc1ccc2cnn(C[C@H]3CC[C@H](C(=O)N4OCC[C@H]4c4cc(F)cc(F)c4)CC3)c2c1 [compound 29]; 1.08
COc1cc(C[C@H]2CC[C@H](C(=O)N3OCC[C@H]3c3cncc(C)c3)CC2)cn2nc(C)nc12 [compound 383]; 1.91
Cc1cc(C[C@H]2CC[C@H](C(=O)N3OCC[C@H]3c3cnccn3)CC2)c(F)cn1 [compound 394]; 1.15
Cn1ncc2ccc(C[C@H]3CC[C@H](C(=O)N4OCC[C@H]4c4cc(F)cc(C#N)c4)CC3)cc21 [compound 294]; 0.60
N#Cc1cncc([C@@H]2CCON2C(=O)[C@H]2CC[C@H](Cc3cc(F)cc(CO)c3)CC2)c1 [compound 257]; 1.00
O=C1NCc2c(F)cc(C[C@H]3CC[C@H](C(=O)N4OCC[C@H]4c4cnccn4)CC3)cc21 [compound 213]; 1.28
Cc1ncc(C[C@H]2CC[C@H](C(=O)N3OCC[C@H]3c3cnc(C)c(F)c3)CC2)c(C(F)(F)F)n1 [compound 399]; 1.93
Cc1cn2cc(C[C@H]3CC[C@H](C(=O)N4OCC[C@H]4c4cc(F)cc(F)c4)CC3)ccc2n1 [compound 227]; 1.36
Cc1cn2cc(C[C@H]3CC[C@H](C(=O)N4OCC[C@H]4c4cc(F)cc(C#N)c4)CC3)ccc2n1 [compound 225]; 1.28
